Hey, just so you know, these numbers are from the Human Domainome abundance scans (Beltran et al. 2025).

B1: Lysine-specific demethylase 5C, residues 319 to 373; numbered along this chain, P41229 (parent)
chain: AQFIESYVCRMCSRGDEDDKLLLCDGCDDNYHIFCLLPPLPEIPKGVWRCPKCVM

variants of: B1; test: abundance fitness (aPCA) (normalised: wild type 0, dead -1); higher = more abundant; growth selection in yeast, the domain comes from the species named; details: Homo sapiens
metricName: abundance fitness
The reply should be a number, written without any unit.

Below are worked cases with known answers.
{"var": "K20T", "abundance fitness": 0.096}
{"var": "C12I", "abundance fitness": -1.14}
{"var": "D16Y", "abundance fitness": -0.115}

Quick one: give measured abundance fitness for `L23E`
-0.078

Quick one: give measured abundance fitness for `D18I`
0.125

Quick one: give measured abundance fitness for `D28L`
-0.294
